Numbers sourced from BigSolDB 2.1.

Conditions: in isopropanol, 293.2 K
observedProperty: solubility (mole fraction)

Recorded solubility (mole fraction) (compound Cc1ccc(-c2cc(C(F)(F)F)nn2-c2ccc(S(N)(=O)=O)cc2)cc1 ): 0.00851

---

Details: in isopropanol, 308.2 K
observedProperty: solubility (mole fraction)
Give bare numbers.

The molecule listed as Cc1ccc(-c2cc(C(F)(F)F)nn2-c2ccc(S(N)(=O)=O)cc2)cc1 shows solubility (mole fraction) equal to 0.0198

---

Conditions: in isopropanol, 313.2 K
observedProperty: solubility (mole fraction)
Answers are plain numbers.

Documented solubility (mole fraction) of Cc1ccc(-c2cc(C(F)(F)F)nn2-c2ccc(S(N)(=O)=O)cc2)cc1 : 0.0233
